- experiment: chemical genetic growth profiling, strain panel (AID 1159580);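 further: tested at 20 µM; growth read once vehicle control cultures reached saturation at 30 °C; 1 = growth at the plate median or of vehicle wells; lower values mean less growth of the strain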
- study conditions: S. cerevisiae deletion strains, growth OD, locus YLR268W, strain sec22, hits give low values
In all, about 5,500 compounds went through this assay and about 2,000 (36%) were called active. Inconclusive results (about 18%) are left out. This is one part of the list.
Exercise: state measured normalized growth for each of the compounds provided.
Reply briefly: the number, and no unit.

Asked: Which measured normalized growth value corresponds to O=S1OCC2C(CO1)C1(Cl)C(Cl)=C(Cl)C2(Cl)C1(Cl)Cl (centres undefined) ?
Given back: 0.97

Asked: Which measured normalized growth value corresponds to C=C1C(C)C2C(Cc3ccccc3)NC(=O)C23OC(=O)/C=C/C(O)CCCC(C)C/C=C/C3C1O (centres undefined) ?
Given back: 1

Asked: Which measured normalized growth value corresponds to CC(C)[C@@H]1CC[C@@H](C)C[C@H]1O ?
Given back: 1.01

Asked: Which measured normalized growth value corresponds to NC[C@@H]1CC[C@@H](N)[C@@H](O[C@H]2[C@H](O)[C@@H](O[C@H]3O[C@H](CO)[C@@H](O)[C@H](N)[C@H]3O)[C@H](N)C[C@@H]2N)O1 ?
Given back: 0.986

Reference source: PubChem BioAssay AID1159580
